Each entry below carries its reported Ki.
target: GABA A receptor α5β3γ2 (Homo sapiens, UniProt P18507+P31644); construct: expressed in transfected cells; host or cells: HEK293 cells, transiently transfected; membranes prepared; assay: [3H]flumazenil competition binding, human GABA A α5β3γ2; settings: competition for [3H]flumazenil (0.5 nM) binding, HEK293 cells expressing human (transiently transfected) α5β3γ2; means of two determinations; read-out: Ki[nM] hα5

SMILES_CODE	Ki
COc1cc(NCCS(C)(=O)=O)c(F)cc1-c1nnc(-c2c(-c3ccccc3)noc2C)o1	1.7 nM
Cc1onc(-c2ccccc2)c1-c1nnc(-c2cccc(S(C)(=O)=O)c2)o1	199 nM
COc1cc(F)ccc1-c1nnc(-c2c(-c3ccccc3)noc2C)o1	39.6 nM
Cc1onc(-c2ccccc2)c1-c1nnc(-c2ccc(C(=O)N3CCOCC3)cc2)o1	469 nM
Cc1onc(-c2ccccc2)c1-c1nnc(-c2cc(F)c(N3CCS(=O)(=O)CC3)cc2F)o1	13.5 nM
COc1cc(-n2ccnn2)ccc1-c1nnc(-c2c(-c3ccccc3)noc2C)o1	4.8 nM
COc1cc(NCc2ccccn2)c(F)cc1-c1nnc(-c2c(-c3ccccc3)noc2C)o1	21.2 nM
COc1cc(N)ccc1-c1nnc(-c2c(-c3ccccc3)noc2CCC2CC2)o1	20.5 nM
Cc1onc(-c2ccccc2)c1-c1nnc(-c2ccc(N3CCOCC3)cn2)o1	17.2 nM
COc1cc(C)ccc1-c1nnc(-c2c(-c3ccccc3)noc2C)o1	31 nM
COc1cc(N2CCOCC2)ccc1-c1nnc(-c2c(-c3ccccc3Cl)noc2C)o1	105 nM
COc1cc(N2CCS(=O)(=O)CC2)ccc1-c1nnc(-c2c(-c3ccccc3)noc2C)o1	3.2 nM
CCNc1onc(-c2ccccc2)c1-c1nnc(-c2ccc(N3CCOCC3)cc2OC)o1	4.9 nM
COc1cc(NCCN(C)C)c(F)cc1-c1nnc(-c2c(-c3ccccc3)noc2C)o1	9.4 nM
Cc1onc(-c2ccccc2)c1-c1nnc(-c2ccc(N)cc2)o1	31.2 nM
COc1cc(-n2ccnc2C)ccc1-c1nnc(-c2c(-c3ccccc3)noc2C)o1	13.9 nM
